System: various cell lines of different tumor origins
TEST PROTOCOL: Inhibition of cell proliferation, InCell Analyzer assay
Assay type: cell-based
RUN PARAMETERS: B-cell, BC-3, lymphoma - B cell unspecified
PROPERTY: IC50

For the molecule COc1cc(N2CCC(N3CCCCC3)CC2)ccc1Nc1nccc(-c2c(-c3cccc(C(=O)Nc4c(F)cccc4F)c3)nc3ccccn23)n1 , what IC50 is on record?
1000 to 5000 nM

###

Tested on: various cell lines of different tumor origins
TEST PROTOCOL: Inhibition of cell proliferation, InCell Analyzer assay
Type: cell-based
RUN PARAMETERS: Homo sapiens, SW948, SW948, Colon
pIC50: −log10 of the molar value.
PROPERTY: pIC50

For the compound COc1cc(N2CCC(N3CCCCC3)CC2)ccc1Nc1nccc(-c2c(-c3cccc(C(=O)Nc4c(F)cccc4F)c3)nc3ccccn23)n1 , what pIC50 is on record?
< 5.30

Data provenance: patent US20100216779A1
